- testSystem: Ubiquitin carboxyl-terminal hydrolase isozyme L3 (Homo sapiens, UniProt P15374)
- Sequence (P15374 whole entry): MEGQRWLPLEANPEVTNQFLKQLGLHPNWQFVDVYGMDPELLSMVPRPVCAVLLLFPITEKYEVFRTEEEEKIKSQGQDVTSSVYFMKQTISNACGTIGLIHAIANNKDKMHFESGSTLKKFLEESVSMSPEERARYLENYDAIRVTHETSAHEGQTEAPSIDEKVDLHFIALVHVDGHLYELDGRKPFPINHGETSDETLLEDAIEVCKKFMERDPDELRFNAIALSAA
- testSummary: Inhibition of UCHL3 in human H1299 cells
propertyName: IC50 (µM)

{"compound": "CC(=O)O/N=C1/C(=O)N(Cc2cc(Cl)ccc2Cl)c2ccc(Br)cc21", "testSystem": "Ubiquitin carboxyl-terminal hydrolase isozyme L3 (Homo sapiens, UniProt P15374)", "propertyName": "IC50", "recordedNumber": 25}
{"compound": "CC(=O)O/N=C1/C(=O)N(Cc2ccc(Cl)c(Cl)c2)c2ccc(Br)cc21", "testSystem": "Ubiquitin carboxyl-terminal hydrolase isozyme L3 (Homo sapiens, UniProt P15374)", "propertyName": "IC50", "recordedNumber": 17}

[I] CCCCc1ccc(-c2n[nH]c(=S)n2-c2ccc(C(C)C)cc2)cc1
[II] CC(=O)O/N=C1/C(=O)N(Cc2ccc(Cl)c(Cl)c2)c2ccc(I)cc21
[III] CC1=CC(=O)c2ccccc2C1=O [MENADIONE]
[IV] O=C1CC(=O)c2c(Cl)c(Cl)c(Cl)c(Cl)c21
Task item: Sort these compounds on IC50 so the largest reading comes first. Sort the labels as requested; that list is your answer.
Reply: III, I, II, IV
(III: 71 µM, I: 47 µM, II: 23 µM, IV: 0.6 µM)

###

- testSystem: Ubiquitin carboxyl-terminal hydrolase isozyme L1 (Homo sapiens, UniProt P09936)
- Sequence (P09936 whole entry): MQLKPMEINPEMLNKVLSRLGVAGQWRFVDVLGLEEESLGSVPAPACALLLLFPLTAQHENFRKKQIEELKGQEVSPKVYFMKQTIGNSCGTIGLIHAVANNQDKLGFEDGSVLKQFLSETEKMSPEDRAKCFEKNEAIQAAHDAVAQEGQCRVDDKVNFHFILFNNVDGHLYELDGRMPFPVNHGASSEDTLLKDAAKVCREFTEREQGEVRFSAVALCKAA
- testSummary: Inhibition of UCHL1 in human H1299 cells
pIC50: −log10 of the molar value.
propertyName: pIC50

Take a look at these entries with their results.
{"compound": "CC(=O)O/N=C1/C(=O)N(Cc2ccc(Cl)c(Cl)c2)c2ccc(I)cc21", "recordedNumber": 6.03}
{"compound": "CC1=CC(=O)c2ccccc2C1=O [MENADIONE]", "recordedNumber": 3.54}
{"compound": "CC(=O)O/N=C1/C(=O)N(Cc2ccc(Cl)c(Cl)c2)c2ccc(Br)cc21", "recordedNumber": 6.09}
{"compound": "CC(=O)O/N=C1/C(=O)N(Cc2cc(Cl)ccc2Cl)c2ccc(Br)cc21", "recordedNumber": 6.06}

[1] O=C1CC(=O)c2c(Cl)c(Cl)c(Cl)c(Cl)c21
[2] CCCCc1ccc(-c2n[nH]c(=S)n2-c2ccc(C(C)C)cc2)cc1
Task item: Hey, which is lower on measured pIC50, 1 or 2 ? Answer by quoting the chosen item's label.
Reply: 2
(2: 3.90, 1: 4.12)
